Listing of entries alongside the reported IC50.
- SYSTEM TESTED: system Xc^− (Homo sapiens, UniProt Q9UPY5)
- Sequence (Q9UPY5 whole entry): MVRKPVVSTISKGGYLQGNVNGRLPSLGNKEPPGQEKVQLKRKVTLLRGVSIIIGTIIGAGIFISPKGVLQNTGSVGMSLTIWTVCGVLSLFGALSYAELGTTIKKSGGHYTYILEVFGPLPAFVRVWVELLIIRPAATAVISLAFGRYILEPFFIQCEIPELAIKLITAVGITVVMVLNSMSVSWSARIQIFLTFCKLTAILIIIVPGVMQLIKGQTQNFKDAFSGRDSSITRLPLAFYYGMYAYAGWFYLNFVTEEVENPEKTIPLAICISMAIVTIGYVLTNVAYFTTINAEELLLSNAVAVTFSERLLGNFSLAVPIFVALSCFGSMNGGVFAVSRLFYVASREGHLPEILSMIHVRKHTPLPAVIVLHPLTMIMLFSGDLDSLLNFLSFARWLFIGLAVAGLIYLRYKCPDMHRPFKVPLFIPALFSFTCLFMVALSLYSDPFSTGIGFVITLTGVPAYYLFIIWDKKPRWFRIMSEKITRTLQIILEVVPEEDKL
- Sequence (P08195 102-630 partner): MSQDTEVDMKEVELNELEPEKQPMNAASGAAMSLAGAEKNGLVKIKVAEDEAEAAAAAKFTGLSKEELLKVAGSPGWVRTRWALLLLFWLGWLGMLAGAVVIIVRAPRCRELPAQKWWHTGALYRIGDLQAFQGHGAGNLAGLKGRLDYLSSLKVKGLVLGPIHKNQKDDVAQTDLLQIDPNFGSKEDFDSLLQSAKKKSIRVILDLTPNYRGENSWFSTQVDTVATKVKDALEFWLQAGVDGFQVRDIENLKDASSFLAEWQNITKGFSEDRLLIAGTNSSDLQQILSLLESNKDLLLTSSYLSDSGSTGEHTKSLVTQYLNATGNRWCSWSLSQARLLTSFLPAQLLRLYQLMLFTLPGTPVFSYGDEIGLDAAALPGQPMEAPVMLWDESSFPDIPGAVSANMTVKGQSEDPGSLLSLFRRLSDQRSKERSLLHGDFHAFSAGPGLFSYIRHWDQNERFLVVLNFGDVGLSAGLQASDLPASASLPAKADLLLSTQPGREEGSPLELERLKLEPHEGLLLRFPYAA
- ASSAY NAME: Cystine-induced glutamate release assay
- Type: cell-based
- Design: endogenous in cells; host or cells: H4 cells
- DETAILS: H4 cells, sodium-free HEPES buffer, 50 μM L-Cystine, 2 hours, Amplex Red glutamate readout; read-out: pIC50 Cystine-induced glutamate release assay (converted)
ENDPOINT: IC50

In [3]: df
Out[3]:
                                   compound                value
0  COc1cc2c(c(OC)n1)-c1cccnc1C(C)C(=O)N2CC(=O)Nc1ccc(C(F)F)cc1 (single isomer, unassigned) [#335]          < 0.0158 µM
1  COc1ccc2c(c1)N(CC(=O)Nc1ccc(Cl)c(F)c1)C(=O)C(C)c1ncccc1-2 (centres unmarked) [#306]  0.0158 to 0.0398 µM
2  CC1C(=O)N(CC(=O)Nc2ccc(C(F)F)cc2)c2ccnc(Cl)c2-c2cccnc21 (single isomer, unassigned) [#398]  0.0158 to 0.0398 µM
3  COc1nc(F)cc2c1-c1cccnc1CC(=O)N2CC(=O)Nc1ccc(C(F)(F)F)cc1 [#113]     0.0398 to 0.1 µM
4  Cc1cc2c(c(F)n1)-c1cccnc1[C@@H](C)C(=O)N2CC(=O)Nc1ccc(Cl)c(F)c1F [#249]     0.0398 to 0.1 µM
5  Cc1cc2c(c(Cl)n1)-c1ccccc1CC(=O)N2CC(=O)Nc1ccc(C(F)(F)F)cc1 [#49]  0.0158 to 0.0398 µM
6  Cc1cc2c(c(F)n1)-c1cccnc1[C@@H](C)C(=O)N2CC(=O)Nc1ccc(C(F)(F)F)c(F)c1 [#143]  0.0158 to 0.0398 µM
7  Cc1cc2c(c(Cl)n1)-c1cc(C)nn1CC(=O)N2CC(=O)Nc1ccc(C(F)(F)F)cc1 [#105]     0.0398 to 0.1 µM
